Form field: fluorescence intensity (one value per entry).
Test: compound fluorescence in toxin protease inhibitor counterscreen, primary screen, artefact control for toxin protease inhibitor project, biochemical, multiplex microsphere, HTS (AID 624483)
Settings: compound autofluorescence counterscreen, microsphere flow cytometry; active compounds read high
The whole screen tested about 360,000 compounds, of which about 11,000 (3.1%) were called active. Inconclusive results (about 2%) are left out. The list comes from a sample in which actives are over-represented; it also holds close analogues and randomly drawn compounds.
experimental-readout: fluorescence intensity

| compound | recorded-result |
| --- | --- |
| CNC(=O)c1csc(-c2ccccc2)n1 | 22300 |
| Fc1ccc(N2CCN(Cc3ccc4c(c3)OCO4)CC2)cc1 | 22800 |
| CCCCOc1ccc(-c2nnc(-c3ccco3)o2)cc1 | 21200 |
| Cc1ccc([C@H]2N[C@]3(CCCN(CC4CCCCC4)C3=O)[C@H]3C(=O)N(Cc4ccccc4)C(=O)[C@@H]23)cc1 | 3930 |
| COc1ccccc1N(C)S(=O)(=O)c1ccc(C(=O)NC2CCCCCC2)cc1 | 5030 |
| CCCNC(=O)C1(C)CCN(C(=O)c2ccccc2OC(F)(F)F)C1 (configuration not stated) | 3700 |
| Oc1cc2c(cc1CN1CCN(c3ccccc3)CC1)OCO2 | 5830 |
| CCCCC[C@H](C)N1C[C@@H](COCc2ccccc2)Oc2cc(N3CC[C@@H](N(C)C)C3)ccc2S1(=O)=O | 5700 |
| CC(C)(C)NC(=O)CSC(=Nc1ccccc1F)NC#N | 21400 |
| CC(C)N1CCC(=NNc2ccc([N+](=O)[O-])cc2S(=O)(=O)N2CCOCC2)CC1 | 3480 |
| CCCCSc1nnc(-c2ccc(C)cc2)o1 | 11000 |
| CC(C)(C)C(=O)c1c(N)[nH]c(C(=O)c2ccccc2)c1-c1ccc(F)cc1 | 4830 |
| Cc1cc(N2CCN(Cc3ccc4c(c3)OCO4)CC2)n2ncnc2n1 | 21200 |
| CC1(C(=O)NS(=O)(=O)c2ccc(C#N)cc2)CCN1C(=O)CC1CCCC1 (configuration not stated) | 3000 |
| N#Cc1ccc(-c2nc3c(Cl)cc(C(F)(F)F)cn3c2Cc2ccccc2C(F)(F)F)cc1 | 5560 |
| Cc1cc(N2CCN(c3ccc(F)cc3)CC2)n2ncnc2n1 | 3960 |
| Cn1cnc(S(=O)(=O)Nc2ccc3c(c2)OCCO3)c1 | 3290 |
| CNC(=S)N1N=C(c2ccccc2)CC1c1ccc(Br)cc1 (configuration not stated) | 23900 |
| Cc1ccccc1CSCC(=O)NC(=O)NC(C)(C)C | 11200 |
| CCc1c(C)nc2ncnn2c1N1CCC(C(=O)NCc2ccc3c(c2)OCO3)CC1 | 20900 |
| COc1ccc(C(O)c2nc(-c3ccc4c(c3)OCO4)cs2)cc1 (configuration not stated) | 2970 |
| CC(OC(=O)c1ccc(NS(=O)(=O)c2ccc3[nH]c(=O)[nH]c3c2)cc1)C(=O)Nc1cccc(Cl)c1Cl (configuration not stated) | 3440 |

====

Assay: compound fluorescence in toxin protease inhibitor counterscreen, primary screen, artefact control for toxin protease inhibitor project, biochemical, multiplex microsphere, HTS (AID 624483)
Settings: compound autofluorescence counterscreen, microsphere flow cytometry; active compounds read high
The campaign covered roughly 360,000 compounds. About 11,000 (3.1%) were called active. About 2% were inconclusive and are not listed. What follows is part of a selection rich in actives, with near analogues and random picks from the rest.
Quick reference for fluorescence intensity among some compounds
experimental-readout: fluorescence intensity

| compound | recorded-result |
| --- | --- |
| CN(c1cccc(NC(=O)c2ccc(CN3CCc4ccccc4C3)cc2)c1)S(C)(=O)=O | 3600 (inactive) |
| COC(=O)c1ccc(C(=O)Nc2cc(Cl)ccc2Cl)cc1NC(=O)c1ccccc1C | 23700 (active) |
| O=C(NCCN1CCOCC1)c1ccccc1N1C(=O)[C@@H]2Cc3c([nH]c4ccccc34)C(c3cccc(Cl)c3)N2C1=O (some centres undefined) | 5120 (inactive) |
| Cc1cc2c(cc1C)N1C(=O)c3cc4ccccc4cc3NC(=O)C1C(=O)N2 (centres undefined) | 5850 (inactive) |
| Cc1cc(Br)cn2c(Cc3ccccc3C(F)(F)F)c(-c3ccc(Cl)cc3)nc12 | 5850 (inactive) |
| Cc1cccc(NC(=O)CSc2nnc(CCNC(=O)OC(C)(C)C)o2)c1C | 3990 (inactive) |
| Cc1cccc(NC(=O)CSc2nnc(CCCCCNC(=O)OC(C)(C)C)o2)c1C | 20100 (active) |
| COc1ccc(C)cc1S(=O)(=O)N(CC(=O)Nc1cccc([N+](=O)[O-])c1)c1ccc(C)cc1 | 2390 (inactive) |
| COc1cccc(NC(=O)Nc2ccc(F)cc2)c1 | 3940 (inactive) |

====

Experiment: compound fluorescence in toxin protease inhibitor counterscreen, primary screen, artefact control for toxin protease inhibitor project, biochemical, multiplex microsphere, HTS (AID 624483)
Settings: compound autofluorescence counterscreen, microsphere flow cytometry; active compounds read high
The whole screen tested about 360,000 compounds, of which about 11,000 (3.1%) were called active. Roughly 2% stayed inconclusive and do not appear here. The full list was thinned out, with actives kept by preference.
Please note: 1 applies when fluorescence intensity is 6000 or greater, and 0 applies otherwise.

| compound | label-value |
| --- | --- |
| COc1ccc(Cl)cc1NC(=O)CN(C)Cc1ccc(OC)c(OC)c1 | 0 |
| O=C(CSc1nnc(COc2ccc(Cl)cc2)n1Cc1ccco1)N1CCNC1=O | 0 |
| COc1ccc(Cl)cc1NC(=O)CN(C)C(=O)CNC(=O)C12CC3CC(CC(C3)C1)C2 | 1 |
| COC(=O)c1cc(C)sc1NC(=O)CC1Nc2ccccc2NC1=O (stereo not given) | 0 |
| CCn1cc(C(=O)N2CC=C(c3ccccc3)CC2)c(=O)c2ccc(C)nc21 | 1 |
| COc1ccc(C(=O)CSc2nnc(COc3ccccc3)n2Cc2ccco2)cc1 | 1 |
| CCCNC(=O)C1(C)CCCN(C(=O)c2cccc(OC(C)=O)c2C)C1 (stereo not given) | 0 |
| CCn1c(CNc2ccc(OC)cc2)nnc1SCC(=O)c1ccc(OC)cc1 | 0 |
| Cc1ccc([C@@H]2CC(=O)[C@@H]3CN(S(=O)(=O)c4ccc(C)cc4)[C@H](c4ccccc4F)C[C@@H]3N2S(=O)(=O)c2ccc(Cl)cc2)cc1 | 0 |
| CC(C)(C)NC(=O)c1cc(NC(=O)c2ccco2)cc(NC(=O)c2ccco2)c1 | 0 |

====

Assay: compound fluorescence in toxin protease inhibitor counterscreen, primary screen, artefact control for toxin protease inhibitor project, biochemical, multiplex microsphere, HTS (AID 624483)
Conditions: compound autofluorescence counterscreen, microsphere flow cytometry; active compounds read high
The campaign covered roughly 360,000 compounds. About 11,000 (3.1%) were called active. Inconclusive results (about 2%) are left out. Many of the other results were omitted from the sample, so actives are more common in it than they were.

| compound | fluorescence intensity |
| --- | --- |
| Cc1cc2ccccn2c1C(=O)c1cccc(F)c1 | 3460 |
| CCOC(=O)C1(S(=O)(=O)c2ccccc2)CCN(Cc2ccccc2)CC1 | 25000 |
| CCOC(=O)C1(S(=O)(=O)c2ccc(Cl)cc2)CCN(Cc2ccccc2)CC1 | 22200 |
| CCOC(=O)C1(CCOc2ccccc2)CCN(Cc2cc(OC)cc(OC)c2)CC1 | 3960 |
| CC(=O)Nc1nc(C)c(Cc2ccccc2)c(=O)[nH]1 | 2420 |
| COc1ccc(S(=O)(=O)N2CCCCC2c2cc(C(=O)NCc3ccc(F)cc3)no2)cc1 (stereo unspecified) | 2840 |
| Cc1c(C=O)c2ccccn2c1C(=O)c1ccncc1 | 20400 |
| COc1ccc(C2=Nc3ccccc3NC(=O)C2N(C(=O)c2cc3ccccc3[nH]2)c2ccccc2)cc1 (stereo unspecified) | 6050 |
| COc1ccc(C(=O)NCC[N+](C)(C)C)cc1 | 5780 |
| Cc1ccc(C(NC(=O)C2CCN(CCOc3ccc(Cl)cc3Cl)CC2)c2ccccn2)cc1 (stereo unspecified) | 3690 |
| Cc1nc(SC(C)C)[nH]c(=O)c1Cc1ccccc1 | 23800 |

====

Test: compound fluorescence in toxin protease inhibitor counterscreen, primary screen, artefact control for toxin protease inhibitor project, biochemical, multiplex microsphere, HTS (AID 624483)
Details: compound autofluorescence counterscreen, microsphere flow cytometry; active compounds read high
Screen size: about 360,000 compounds; about 11,000 (3.1%) were called active. Inconclusive results (about 2%) are left out. What follows is part of a selection rich in actives, with near analogues and random picks from the rest.

| molecule | fluorescence intensity |
| --- | --- |
| CCOc1ccc(-c2cn(S(=O)(=O)c3cccc4nsnc34)nc2N)cc1 | 4610 |
| Cc1cccc(C)c1Cn1c(C)c(C(=O)NCc2cccc(Cl)c2)sc1=O | 4280 |
| CCc1ccc2ncc(C(=O)c3ccccc3)c(N3CCOCC3)c2c1 | 6180 |
| CN(C)c1nccc(NCc2ccccc2)c1C#N | 2510 |
| COC(=O)c1nc2n(n1)C(c1ccc([N+](=O)[O-])cc1)C(C(=O)Nc1ccc(Cl)cc1)=C(C)N2 (centres undefined) | 2390 |
| NC(=O)CC(NC(=O)Cc1cccc2ccccc12)c1ccc(NCc2cc(F)ccc2F)c([N+](=O)[O-])c1 (centres undefined) | 4100 |
| Cc1cccc2sc(N(CCCN(C)C)C(=O)CCS(=O)(=O)c3ccccc3)nc12 | 32000 |
| Cc1noc(C)c1CSc1nnc2ccc3ccccc3n12 | 23000 |
| O=C(O)CN(Cc1ccco1)S(=O)(=O)c1ccccc1 | 3010 |
| O=C(O)CCC(=O)N(Cc1ccco1)c1nc(-c2ccccc2)cs1 | 22500 |
| CCN(CC)C(=O)CSC1c2ccccc2C(=O)N1c1ccccc1 (centres undefined) | 23100 |
| Cc1sc(NC(=S)NC(=O)c2cccs2)nc1-c1ccc(CC(C)C)cc1 | 19900 |
| CCOC(=O)c1[nH]c(C)c(C(=O)OCC(=O)N2c3ccccc3CC2C)c1C (centres undefined) | 19700 |
| O=C(NCC(c1cccs1)N1CCOCC1)c1cc(-c2ccccn2)nc2ccccc12 (centres undefined) | 4740 |
| Cc1c(C#N)c2ncn(CC#N)c(=O)c2n1-c1ccccc1 | 2670 |
| Cc1cc(C)c(S(=O)(=O)NN=C2c3ccccc3[C@H]3Cc4csc[n+]4[C@@H]23)c(C)c1 | 5040 |
| Cc1ccc(F)c(S(=O)(=O)NC(=O)C2(C)CCN2C(=O)CCc2cccs2)c1 (centres undefined) | 3440 |
| CCOC(=O)[C@]12CCC=C1N(Cc1ccco1)C(=O)[C@H](CC(=O)N1CCSCC1)C2 | 4160 |
| CCOc1ccc(NC(=O)CCS(=O)(=O)c2ccc3c(c2)CCCN3C(=O)CC)cc1 | 10500 |
| O=C(C[n+]1ccc2c(c1)nnn2-c1ccccc1)c1ccc(Cl)cc1 | 5380 |
| Fc1ccc(N2N=C(c3cccs3)CC2c2ccco2)c(F)c1 (centres undefined) | 20900 |
| O=C(N1CCOCC1)N1CCOCC1 | 21400 |
| O=S1(=O)CC(N2CCN(c3ccccn3)CC2)CN1Cc1ccc(F)cc1 (centres undefined) | 5970 |
| Cc1ccc(-c2csc(N(Cc3ccco3)C(=O)c3cccs3)n2)cc1 | 2850 |
| CC1=C(C(N)=O)C(c2ccc(F)cc2)n2nc(CCCO)nc2N1 (centres undefined) | 3660 |
| CCN(CC)C(=O)CSc1ncnc2c1cnn2-c1ccccc1 | 3150 |
| NC(=O)CSC1=Nc2ccccc2C2=NC(CCC(=O)NCc3ccc(F)cc3)C(=O)N12 (centres undefined) | 3100 |
| Cc1ccccc1S(=O)(=O)NC(=O)C1(C)CCN1C(=O)C1(c2ccc(Cl)cc2)CC1 (centres undefined) | 4140 |
| COc1ccc([C@H]2CC(=O)C[C@@H](CCn3cc(CC4CCCC4)nn3)O2)cc1 | 5900 |
| Cc1ccccc1C(OCCN(C)C)C1CCCCC1 (centres undefined) | 2370 |
| CCCCC(O)C1=C[N+](=O)CC=C1 (centres undefined) | 4270 |
| CC(C)(C)OC(=O)N/N=C/c1ccc(C(=O)O)cc1 | 2640 |
| Nc1scc[n+]1Cc1cccc2cccnc12 | 3430 |
| C#CCNC(=O)C[C@@H]1C[C@@]2(C(=O)OCC)CCCC=C2N(Cc2ccco2)C1=O | 4250 |
| CC1CCc2c(nc3ncnn3c2Nc2ccc(OC(F)(F)F)cc2)C1 (centres undefined) | 5260 |
| O=C(NC(=S)Nc1ccccc1N1CCCCC1)c1ccc(F)cc1 | 6710 |
| O=C(COc1ccccc1Cl)N1N=C(c2cccs2)CC1c1ccco1 (centres undefined) | 3750 |
| COCCOC(=O)C1=C(C)Nc2nc(C)nn2C1c1ccccc1 (centres undefined) | 17100 |
| COc1cccc(NC(=O)C2(C)CCN2C(=O)CCC2CCCC2)c1 (centres undefined) | 2920 |
| CC(=O)C1=C(O)C(=O)N(c2ccc(S(N)(=O)=O)cc2)C1c1ccccc1F (centres undefined) | 2660 |
| CC(C)c1cccc(C(C)C)c1Nc1cn[nH]c1 | 6170 |
| O=C(NC(=S)Nc1cccc(-c2ccc(CO)o2)c1)c1cccs1 | 4550 |
| Cc1ccccc1C1CC(c2cccs2)=NN1S(C)(=O)=O (centres undefined) | 6430 |
| O=S1(=O)CC(N2CCN(Cc3ccccc3F)CC2)CN1Cc1cn(Cc2cccc(C(F)(F)F)c2)nn1 (centres undefined) | 4150 |
